- System: HT29 RNF43 G659fs (RNF43 659mut, CRISPR-edited)
- Measurement notes: cell viability activity relative to DMSO (negative = inhibition); higher = more viable cells (less growth inhibition)
- Reported conditions: 5 µM; 96 h
Outcome measure: cell viability activity

Task: Please give the measured cell viability activity for this molecule: O=C(CCCCCN1C(=O)c2cccc3cccc(c23)C1=O)NO
Result: -79.1%

Task: Please give the measured cell viability activity for this molecule: CC(=O)OC1CC2CCC1(C)C2(C)C (configuration not stated)
Result: -28.1%

Task: Please give the measured cell viability activity for this molecule: Nc1ncnc2c1nc(Br)n2[C@@H]1O[C@@H]2COP(=O)(O)O[C@H]2[C@H]1O
Result: -26.8%

Task: Please give the measured cell viability activity for this molecule: COc1cc2c(Oc3ccc(NC(=O)C4(C(=O)Nc5ccc(F)cc5)CC4)cc3F)ccnc2cc1OCCCN1CCOCC1
Result: -92.2%

Task: Please give the measured cell viability activity for this molecule: COC(=O)C1=C(C)NC(C)=C(C(=O)OCCCN2CCC(c3ccccc3)(c3ccccc3)CC2)[C@@H]1c1cccc([N+](=O)[O-])c1
Result: -65.6%

Task: Please give the measured cell viability activity for this molecule: CC1NC(=O)C(N)CNC(=O)C(C2CCN=C(N)N2)NC(=O)/C(=C\NC(N)=O)NC(=O)C(CNC(=O)CC(N)CCCN)NC1=O (configuration not stated)
Result: -29.5%

Task: Please give the measured cell viability activity for this molecule: CC(C)(O)C(=O)N1CCN(c2ccc(C(F)(F)F)c(C3=C(c4c[nH]c5ccccc45)C(=O)NC3=O)c2)CC1
Result: -43.1%

Task: Please give the measured cell viability activity for this molecule: CN1CCN(Cc2ccc(-c3cnc4[nH]cc(-c5ccc6[nH]ccc6c5)c4c3)cc2)CC1
Result: -90.1%

Task: Please give the measured cell viability activity for this molecule: Cn1c(=O)n(-c2ccc(C(C)(C)C#N)cc2)c2c3cc(-c4cnc5ccccc5c4)ccc3ncc21
Result: -56.8%

Task: Please give the measured cell viability activity for this molecule: COc1ccc2c(c1)c(C1=C(c3c[nH]c4ccccc34)C(=O)NC1=O)cn2CCCN(C)C
Result: -75.2%

Task: Please give the measured cell viability activity for this molecule: Cc1c(-c2ccc(O)cc2)n(Cc2ccc(OCCN3CCCCCC3)cc2)c2ccc(O)cc12
Result: -67.2%

Task: Please give the measured cell viability activity for this molecule: O=C(NO)c1cnc(N2CCN(S(=O)(=O)c3ccc4ccccc4c3)CC2)nc1
Result: -64.4%

Task: Please give the measured cell viability activity for this molecule: CC[C@]1(O)C[C@H]2CN(CCc3c([nH]c4ccccc34)[C@@](C(=O)OC)(c3cc4c(cc3OC)N(C=O)[C@H]3[C@@](O)(C(=O)OC)[C@H](OC(C)=O)[C@]5(CC)C=CCN6CC[C@]43[C@@H]65)C2)C1
Result: -28.3%

Task: Please give the measured cell viability activity for this molecule: COc1ccc(-c2cc3nccn3c(Nc3ncccc3C(N)=O)n2)cc1OC
Result: -27.9%

Task: Please give the measured cell viability activity for this molecule: C=CC(=O)Nc1cc2c(Nc3ccc(F)c(Cl)c3)ncnc2cc1C#CC(C)(C)N1CCN(C)CC1
Result: -94.8%

Task: Please give the measured cell viability activity for this molecule: Clc1ccc(CSC(Cn2ccnc2)c2ccc(Cl)cc2Cl)cc1 (configuration not stated)
Result: -38.7%

Task: Please give the measured cell viability activity for this molecule: Cn1c(Nc2ccc(C(F)(F)F)cc2)nc2cc(Oc3ccnc(-c4ncc(C(F)(F)F)[nH]4)c3)ccc21
Result: -82%

* * *

- System: HT29 RNF43 G659fs (RNF43 659mut, CRISPR-edited)
- Measurement notes: cell viability activity relative to DMSO (negative = inhibition); higher = more viable cells (less growth inhibition)
- Reported conditions: 5 µM; 96 h
Output Condition met for records whose cell viability activity is lower than -40%, Condition not met for records at or above -40%.

Task: Please let me know if c1ccc2c(CCNc3ccc(Nc4ccncc4)cc3)c[nH]c2c1 shows cell viability activity below -40%.
Result: Condition met

Task: Please let me know if Cc1ccc(C(=O)Nc2cccc(C(F)(F)F)c2)cc1Nc1nc(-c2cccnc2)nc2c1cnn2C shows cell viability activity below -40%.
Result: Condition not met

Task: Please let me know if NNc1nncc2ccccc12 shows cell viability activity below -40%.
Result: Condition met

Task: Please let me know if CC(=O)N1CCN(CCOc2ccc(C3CCN(C4=Nn5c(nnc5C(F)(F)F)CC4)CC3)cc2)CC1 shows cell viability activity below -40%.
Result: Condition not met

Task: Please let me know if CC1(C)CC(Oc2ccc(-c3ccc(-c4cn[nH]c4)cc3O)nn2)CC(C)(C)N1 shows cell viability activity below -40%.
Result: Condition met

* * *

For each of the molecules below, state its cell viability activity.
- System: HT29 sg-Ctrl (RNF43 wildtype)
- Measurement notes: cell viability activity relative to DMSO (negative = inhibition); higher = more viable cells (less growth inhibition)
- Reported conditions: 5 µM; 96 h
Just the number in %, nothing appended.

Task: Please give the measured cell viability activity for this molecule: Nc1ncn([C@@H]2O[C@H](CO)[C@@H](O)[C@H]2O)c(=O)n1
Result: -7.11

Task: Please give the measured cell viability activity for this molecule: Cn1ccc2cc(NC(=O)Nc3cccnc3)ccc21
Result: -52

Task: Please give the measured cell viability activity for this molecule: S=c1[nH]cnc2nc[nH]c12
Result: -49.4

Task: Please give the measured cell viability activity for this molecule: CCOc1ccccc1OC(c1ccccc1)C1CNCCO1 (stereo not given)
Result: -58.7

Task: Please give the measured cell viability activity for this molecule: CN(NC(=O)CC(=O)NN(C)C(=S)c1ccccc1)C(=S)c1ccccc1
Result: -15.3

Task: Please give the measured cell viability activity for this molecule: CCN(CC)CCOc1ccc(Nc2ncc3cc(-c4c(Cl)cccc4Cl)c(=O)n(C)c3n2)cc1
Result: -80.3

Task: Please give the measured cell viability activity for this molecule: CCn1c2ccccc2c2cc(Nc3ccnc(NCCCN4CCOCC4)n3)ccc21
Result: -84.9

Task: Please give the measured cell viability activity for this molecule: OC1(c2ccc(Cl)c(C(F)(F)F)c2)CCN(CCCC(c2ccc(F)cc2)c2ccc(F)cc2)CC1
Result: -60.6

Task: Please give the measured cell viability activity for this molecule: Cc1[nH]c2ccccc2c1CCNCc1ccc(/C=C/C(=O)NO)cc1
Result: -96.1

Task: Please give the measured cell viability activity for this molecule: C[C@@H](Oc1cc(-n2cnc3ccc(CN4CCN(C)CC4)cc32)sc1C(N)=O)c1ccccc1C(F)(F)F
Result: -76.1

Task: Please give the measured cell viability activity for this molecule: O=C(CCCCCCC(=O)Nc1ccccc1)NO
Result: -84.4

Task: Please give the measured cell viability activity for this molecule: CN[C@@H](C)C(=O)N[C@H](C(=O)N1CCC[C@H]1C(=O)N[C@H]1c2ccccc2C[C@H]1OCC#CC#CCO[C@@H]1Cc2ccccc2[C@@H]1NC(=O)[C@@H]1CCCN1C(=O)[C@@H](NC(=O)[C@H](C)NC)C1CCCCC1)C1CCCCC1
Result: -77.2

Task: Please give the measured cell viability activity for this molecule: CC(C)c1ccc(C(=O)N=C(N)N)cc1S(C)(=O)=O
Result: -5.71

Task: Please give the measured cell viability activity for this molecule: CN(C)C(=O)C(CCN1CCC(O)(c2ccc(Cl)cc2)CC1)(c1ccccc1)c1ccccc1
Result: -75.2

Task: Please give the measured cell viability activity for this molecule: Cc1cc(C(=O)NOCCO)c(Nc2ccc(I)cc2F)n(C)c1=O
Result: -88.5

Task: Please give the measured cell viability activity for this molecule: Cc1c(C(=O)Nc2ccc(N3CCC(N4CCOCC4)CC3)c(C#N)c2)cnn1-c1ccc(Cl)cc1
Result: -33.4

Task: Please give the measured cell viability activity for this molecule: CCCCCCCCc1ccc(CCC(N)(CO)CO)cc1
Result: -94.1

Task: Please give the measured cell viability activity for this molecule: CC(C)n1nc(-c2ccc3oc(N)nc3c2)c2c(N)ncnc21
Result: -52.5

Task: Please give the measured cell viability activity for this molecule: Clc1cc(Cl)c(OCC#CI)cc1Cl
Result: -23.2

Task: Please give the measured cell viability activity for this molecule: Cc1cnc(Nc2ccc(F)cc2Cl)nc1-c1c[nH]c(C(=O)N[C@H](CO)c2cccc(Cl)c2)c1
Result: -76

Task: Please give the measured cell viability activity for this molecule: CCCCc1oc2ccc(NS(C)(=O)=O)cc2c1C(=O)c1ccc(OCCCN(CCCC)CCCC)cc1
Result: -91.7

Task: Please give the measured cell viability activity for this molecule: CCc1nc(C(N)=O)c(Nc2ccc(N3CCC(N4CCN(C)CC4)CC3)c(OC)c2)nc1NC1CCOCC1
Result: -61.8

Task: Please give the measured cell viability activity for this molecule: NS(=O)(=O)OC[C@@H]1C[C@@H](n2ccc3c(N[C@H]4CCc5ccccc54)ncnc32)C[C@@H]1O
Result: -63.2

Task: Please give the measured cell viability activity for this molecule: CN(c1ccccc1CNc1nc(Nc2ccc3c(c2)CC(=O)N3)ncc1C(F)(F)F)S(C)(=O)=O
Result: -57.8

Task: Please give the measured cell viability activity for this molecule: COCCN1CCN(Cc2ccc(-c3n[nH]c4c3C(=O)c3c(NC(=O)NN5CCOCC5)cccc3-4)cc2)CC1
Result: -79.4

Task: Please give the measured cell viability activity for this molecule: O=C(Nc1ccccc1-c1cn2c(CN3CCNCC3)csc2n1)c1cnc2ccccc2n1
Result: -81.8

Task: Please give the measured cell viability activity for this molecule: Cc1cc(OCc2nc(-c3ccccc3Cl)cs2)ccc1OCC(=O)O
Result: -31.1

Task: Please give the measured cell viability activity for this molecule: CSc1ccccc1Nc1nc(N2CCNCC2)nc2c(NCC3CC3)ncnc12
Result: -94.6

Task: Please give the measured cell viability activity for this molecule: CN[C@H]1CN(c2ccc3c(=O)c(C(=O)O)cn(-c4nccs4)c3n2)C[C@@H]1OC
Result: -30.9

Task: Please give the measured cell viability activity for this molecule: CC(C)=CCC/C(C)=C/CC/C(C)=C/CSc1ccccc1C(N)=O
Result: -6.13

Task: Please give the measured cell viability activity for this molecule: Cn1nccc1Nc1nccc(-c2ccn([C@H](CO)c3ccc(Cl)c(F)c3)c(=O)c2)n1
Result: -52.1

Task: Please give the measured cell viability activity for this molecule: CCNC(=O)Nc1ccc(-c2nc3c(c(N4CCOC[C@@H]4C)n2)CCN(C2COC2)C3)cc1
Result: -22

Task: Please give the measured cell viability activity for this molecule: COc1cc(OC)c(/C=C/S(=O)(=O)Cc2ccc(OC)c(OP(=O)(O)O)c2)c(OC)c1
Result: -12.1

Task: Please give the measured cell viability activity for this molecule: CCCCCCCC(=O)N[C@H](CN1CCCC1)[C@H](O)c1ccc2c(c1)OCCO2
Result: -40.4

Task: Please give the measured cell viability activity for this molecule: CC(C)[C@](O)(c1ccc2cc(OC(F)F)c(OC(F)F)cc2c1)c1c[nH]nn1
Result: 9.17

meta.source: the supplement of paper PMC9177965
